Test system: vancomycin-resistant enterococci
Protocol summary: broth micro-dilution, mean geometric MIC
Assay type: cell-based, Enterococcus faecium and Enterococcus faecalis
Run parameters: enterococci, 24-hour incubation
Readout: mean geometric MIC, Vancomycin Resistant Strains (µg/mL)
# output: bare number, implied unit µg/mL

// solved cases for mean geometric MIC, Vancomycin Resistant Strains follow
# mean geometric MIC, Vancomycin Resistant Strains (compound: CNC(CC(C)C)C(=O)NC1C(=O)NC(CC(N)=O)C(=O)NC2C(=O)NC3C(=O)NC(C(=O)NC(C(=O)O)c4cc(O)cc(O)c4-c4cc3ccc4O)C(OC3CC(C)(N)C(O)C(C)O3)c3ccc(c(Cl)c3)Oc3cc2cc(c3OC2OC(CO)C(O)C(O)C2OC2CC(C)(NCc3ccc(Cc4ccccc4)cc3)C(O)C(C)O2)Oc2ccc(cc2Cl)C1O (stereo not drawn) [Compound 50] ) is 0.12

The compound identified as CNC(CC(C)C)C(=O)NC1C(=O)NC(CC(N)=O)C(=O)NC2C(=O)NC3C(=O)NC(C(=O)NC(C(=O)O)c4cc(O)cc(O)c4-c4cc3ccc4O)C(OC3CC(C)(N)C(O)C(C)O3)c3ccc(c(Cl)c3)Oc3cc2cc(c3OC2OC(CO)C(O)C(O)C2OC2CC(C)(NCc3ccc(Oc4ccccc4)cc3)C(O)C(C)O2)Oc2ccc(cc2Cl)C1O (stereo not drawn) [Compound 4, p-phenoxybenzyl·A82846B] registered its mean geometric MIC, Vancomycin Resistant Strains at 0.50

For record CC(C)CC(C(=O)NC1C(=O)NC(CC(N)=O)C(=O)NC2C(=O)NC3C(=O)NC(C(=O)NC(C(=O)O)c4cc(O)cc(O)c4-c4cc3ccc4O)C(OC3CC(C)(N)C(O)C(C)O3)c3ccc(c(Cl)c3)Oc3cc2cc(c3OC2OC(CO)C(O)C(O)C2OC2CC(C)(NCc3ccc(N(C)c4ccccc4)cc3)C(O)C(C)O2)Oc2ccc(cc2Cl)C1O)N(C)Cc1ccc(N(C)c2ccccc2)cc1 (stereo not drawn) [Compound 260] the listed mean geometric MIC, Vancomycin Resistant Strains is 4.8

Query CNC(CC(C)C)C(=O)NC1C(=O)NC(CC(N)=O)C(=O)NC2C(=O)NC3C(=O)NC(C(=O)NC(C(=O)O)c4cc(O)cc(O)c4-c4cc3ccc4O)C(OC3CC(C)(N)C(O)C(C)O3)c3ccc(c(Cl)c3)Oc3cc2cc(c3OC2OC(CO)C(O)C(O)C2OC2CC(C)(NCc3ccc(-c4ccc(C)cc4)c(C)c3)C(O)C(C)O2)Oc2ccc(cc2Cl)C1O (stereo not drawn) [Compound 225] yields mean geometric MIC, Vancomycin Resistant Strains of 0.63

Lab note: CN[C@H](CC(C)C)C(=O)N[C@H]1C(=O)N[C@@H](CC(N)=O)C(=O)N[C@H]2C(=O)N[C@H]3C(=O)N[C@H](C(=O)N[C@H](C(=O)O)c4cc(O)cc(O)c4-c4cc3ccc4O)[C@H](O[C@H]3C[C@](C)(N)[C@@H](O)[C@H](C)O3)c3ccc(c(Cl)c3)Oc3cc2cc(c3O[C@@H]2O[C@H](CO)[C@@H](O)[C@H](O)[C@H]2O[C@H]2C[C@](C)(NCc3ccc(Oc4ccc(C)cc4)cc3)[C@@H](O)[C@H](C)O2)Oc2ccc(cc2Cl)[C@H]1O [Compound 95] gave mean geometric MIC, Vancomycin Resistant Strains of 1.7

Now look at this entry.
The reported value for CC(C)CC(C(=O)NC1C(=O)NC(CC(N)=O)C(=O)NC2C(=O)NC3C(=O)NC(C(=O)NC(C(=O)O)c4cc(O)cc(O)c4-c4cc3ccc4O)C(OC3CC(C)(N)C(O)C(C)O3)c3ccc(c(Cl)c3)Oc3cc2cc(c3OC2OC(CO)C(O)C(O)C2OC2CC(C)(N)C(O)C(C)O2)Oc2ccc(cc2Cl)C1O)N(C)Cc1ccc(O)cc1 (stereo not drawn) [Compound 257] in terms of mean geometric MIC, Vancomycin Resistant Strains is 64
